MEASURED ON: Replicase polyprotein 1ab (Severe acute respiratory syndrome coronavirus 2)

COMPOUND SMILES	IC50
CC(C)C[C@@H]1NC(=O)[C@H](Cc2ccccc2)NC(=O)[C@@H]2CCCN2C(=O)[C@H]([C@@H](C)O)NC(=O)[C@H]([C@@H](C)O)NC(=O)[C@H](C)NC(=O)[C@H](Cc2c[nH]cn2)NC(=O)[C@H](Cc2ccccc2)NC(=O)[C@H]([C@@H](C)O)NC(=O)[C@H](C(C)C)NC(=O)[C@@H](Cc2ccc(O)cc2)NC(=O)CSC[C@@H](C(=O)NCC(N)=O)NC(=O)[C@@H]2CCCN2C(=O)[C@@H]2CCCN2C1=O	510 nM
CC[C@H](C)[C@@H]1NC(=O)[C@@H](Cc2ccc(O)cc2)NC(=O)CSC[C@@H](C(N)=O)NC(=O)[C@H](C(C)C)NC(=O)[C@H](CC(C)C)NC(=O)[C@@H]2CCCN2C(=O)[C@H](Cc2ccccc2)NC(=O)[C@H]([C@@H](C)O)NC(=O)[C@H](CCC(N)=O)NC1=O	1400 nM
